These entries and their values trace back to patent US20100222396A1.

MEASURED TARGET: human orexin 2 receptor (hOx2R) (Homo sapiens, UniProt O43614)
Construct: expressed in transfected cells
Sequence (O43614 whole entry): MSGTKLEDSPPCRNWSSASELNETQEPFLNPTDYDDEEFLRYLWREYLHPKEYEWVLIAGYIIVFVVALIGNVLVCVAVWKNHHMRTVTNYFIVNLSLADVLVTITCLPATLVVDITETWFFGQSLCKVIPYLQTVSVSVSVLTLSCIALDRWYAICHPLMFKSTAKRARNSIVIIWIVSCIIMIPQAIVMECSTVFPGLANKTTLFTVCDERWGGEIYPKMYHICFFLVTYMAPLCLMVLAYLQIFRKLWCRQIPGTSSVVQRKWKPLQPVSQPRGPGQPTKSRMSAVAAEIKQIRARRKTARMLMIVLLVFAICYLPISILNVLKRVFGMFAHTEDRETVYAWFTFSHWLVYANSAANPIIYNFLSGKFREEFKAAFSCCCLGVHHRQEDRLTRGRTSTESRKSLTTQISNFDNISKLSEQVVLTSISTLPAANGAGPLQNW
RUN DESCRIPTION: Calcium accumulation in cells (FLIPR), antagonism of orexin A, hOx2R
Assay type: cell-based
SETUP CONDITIONS: cells expressing human orexin 2 receptor; IC50 vs orexin A converted by Cheng and Prusoff correction
Protocol: Cells expressing human orexin 1 or human orexin 2 receptors, were seeded at 8,000 cells/well in 384 well black-walled clear bottom, poly-D-lysine coated plates. […] On the day of the experiment, the cells seeded in black plates were treated with assay buffer containing the Ca^2+ sensitive fluorescent dye Fluo-4-AM (2 μM), and probenecid (0.1 mM). […] Fluorescence measurements were then continued every 1 S for 120 S followed by every 4 S for 240 S. […]
QUANTITY KIND: log10 of Kd (log10 of the value in nM)

COMPOUND: C[C@H](CNC(=O)c1ccccn1)[C@H](Cc1ccccc1)N(C)C(=O)c1ccccc1 [Example 112]
log10 of Kd: 2.70
//
COMPOUND: CN(C(=O)c1ccc2ccccc2c1)[C@H](CCNC(=O)c1ccccn1)Cc1ccc(Cl)cc1 [Example 53]
log10 of Kd: 2.87
//
COMPOUND: CN(C(=O)c1ccccc1)[C@H](CCNC(=O)c1ccccn1)Cc1ccccc1 [Example 37]
log10 of Kd: 2.64
//
COMPOUND: Cc1cccc(C(=O)N(C)[C@H](CCNC(=O)c2ccccn2)Cc2ccccc2)c1 [Example 96]
log10 of Kd: 1.87
//
COMPOUND: CN(C(=O)c1cc(C(F)(F)F)cc(C(F)(F)F)c1)[C@H](CCNC(=O)c1ccccn1)Cc1ccccc1 [Example 5]
log10 of Kd: 0.90
//
COMPOUND: CN(C(=O)c1cc(F)cc(F)c1)[C@H](CCNC(=O)c1ccccn1)Cc1ccccc1 [Example 34]
log10 of Kd: 2.75
//
COMPOUND: CN(C(=O)c1cccc2ccccc12)[C@H](CCNC(=O)c1nc2ccccc2n1C)Cc1ccccc1 [Example 18]
log10 of Kd: 1.15
//
COMPOUND: COc1ccc(C(=O)N(C)[C@H](CCNC(=O)c2cccn2C)Cc2ccccc2)cc1OC [Example 120]
log10 of Kd: 0.60

* * *

MEASURED TARGET: human orexin 1 receptor (hOx1R) (Homo sapiens, UniProt O43613)
Construct: expressed in transfected cells
Sequence (O43613 whole entry): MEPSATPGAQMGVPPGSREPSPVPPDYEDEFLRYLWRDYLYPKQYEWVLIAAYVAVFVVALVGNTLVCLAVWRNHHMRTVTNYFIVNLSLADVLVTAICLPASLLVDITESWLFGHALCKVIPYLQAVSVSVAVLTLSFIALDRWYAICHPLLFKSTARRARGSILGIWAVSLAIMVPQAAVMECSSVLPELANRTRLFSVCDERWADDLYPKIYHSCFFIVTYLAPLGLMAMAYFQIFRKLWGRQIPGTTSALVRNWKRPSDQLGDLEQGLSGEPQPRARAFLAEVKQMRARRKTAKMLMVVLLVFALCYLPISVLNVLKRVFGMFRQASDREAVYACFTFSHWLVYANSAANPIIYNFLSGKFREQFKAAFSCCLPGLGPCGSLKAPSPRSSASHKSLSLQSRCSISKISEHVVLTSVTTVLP
RUN DESCRIPTION: Calcium accumulation in cells (FLIPR), antagonism of orexin A, hOx1R
Assay type: cell-based
SETUP CONDITIONS: measured at a concentration of 10 μM of compound (cells marked ^a)
# reported inhibition at 10 µM; entries follow

COMPOUND: CN(C(=O)c1cccc2c1OCO2)[C@H](CCNC(=O)c1nc2ccccc2n1C)Cc1ccc(F)cc1 [Example 56]
UNIT INFO: %
inhibition at 10 µM: 1
//
COMPOUND: CN(C(=O)c1ccccc1)[C@H](CCNC(=O)c1ccc2c(c1)OCO2)Cc1ccccc1 [Example 93]
UNIT INFO: %
inhibition at 10 µM: 30
//
COMPOUND: CN(C(=O)c1ccc2c(c1)OC(C)(C)O2)[C@H](CCNC(=O)c1ccccn1)Cc1ccccc1 [Example 101]
UNIT INFO: %
inhibition at 10 µM: 13
//
COMPOUND: CN(C(=O)c1ccccc1)[C@H](CCNC(=O)c1cccc2cccnc12)Cc1ccccc1 [Example 49]
UNIT INFO: %
inhibition at 10 µM: 9
//
COMPOUND: CCCCC(=O)NCCC(Cc1ccccc1)N(C)C(=O)c1cc(C(F)(F)F)cc(C(F)(F)F)c1 (stereo not drawn) [Example 39]
UNIT INFO: %
inhibition at 10 µM: 0
//
COMPOUND: CN(C(=O)c1cccc2c1OCO2)[C@H](CCNC(=O)c1ccccn1)Cc1ccc(F)cc1 [Example 63]
UNIT INFO: %
inhibition at 10 µM: 0
//
COMPOUND: CN(C(=O)c1ccc2ccccc2c1)[C@H](CCNC(=O)c1ccccn1)Cc1ccc(F)cc1 [Example 58]
UNIT INFO: %
inhibition at 10 µM: 1
//
COMPOUND: CC(=O)NCC[C@H](Cc1ccccc1)N(C)C(=O)c1ccc2c(c1)OCO2 [Example 109]
UNIT INFO: %
inhibition at 10 µM: 39
//
COMPOUND: CN(C(=O)c1cccc2ccn(C)c12)[C@H](CCNC(=O)c1ccccn1)Cc1ccccc1 [Example 36]
UNIT INFO: %
inhibition at 10 µM: 37
//
COMPOUND: CN(C(=O)c1ccccc1)[C@H](CCNC(=O)c1ccccn1)[C@@H](O)c1ccccc1 [Example 115]
UNIT INFO: %
inhibition at 10 µM: 13
//
COMPOUND: CN(C(=O)c1ccccc1)[C@H](CCNC(=O)c1cccc2c1OCC2)Cc1ccccc1 [Example 67]
UNIT INFO: %
inhibition at 10 µM: 33
//
COMPOUND: CN(C(=O)c1ccccc1)[C@H](CCNC(=O)c1cccn1C)Cc1ccccc1 [Example 91]
UNIT INFO: %
inhibition at 10 µM: 16
